test system: P. aeruginosa; test: MIC, broth microdilution, CDC/FDA Antibiotic Resistance Isolate Bank (Example 7, Tables 10, 15); type: cell-based; details: Pseudomonas aeruginosa, P. aeruginosa KUB No. 5821, AR Bank # 516; read-out: MIC
I'd appreciate it if you could supply MIC values for the items below.

Below: 2 molecules and their reported MIC.
[[record]]
molecule = "C[C@H]1COc2c(N3CCN(C)CC3)c(F)cc3c(=O)c(C(=O)O)cn1c23 [Levofloxacin, levofloxacin]"
readout = "MIC"
recorded_measurement = "1 ng/mL"

[[record]]
molecule = "CO/N=C(\\C(=O)N[C@@H]1C(=O)N2C(C(=O)[O-])=C(C[n+]3ccn4ncccc43)CS[C@H]12)c1nsc(N)n1 [Cefozopran, cefozopran]"
readout = "MIC"
recorded_measurement = "> 64 ng/mL"


Ask | Return reported MIC; argument: CN(C)c1cc(NC(=O)CNC(C)(C)C)c(O)c2c1C[C@H]1C[C@H]3[C@H](N(C)C)C(O)=C(C(N)=O)C(=O)[C@@]3(O)C(O)=C1C2=O [Tigecycline, tigecycline]
Reply | 4 ng/mL
